tested on: Mus musculus; assay: In vivo potency relative to PGE-2 =100 for diarrheal activity in conscious mice.; assay type: functional
Record form. Attribute: Relative potency. Fill in for each entry.
Answers are plain numbers.

Some compounds with recorded Relative potency:
>  <compound>
O=C(O)CCC/C=C\C[C@@H]1C(/C=C/[C@@H](O)C2Cc3ccccc3C2)[C@H](O)C[C@@H]1O (some centres undefined)

>  <measuredTarget>
Mus musculus

>  <measurement>
50

$$$$
>  <compound>
O=C(O)CCC/C=C\C[C@@H]1C(/C=C/[C@@H](O)[C@H]2CCc3ccccc3C2)[C@H](O)C[C@@H]1O (some centres undefined)

>  <measuredTarget>
Mus musculus

>  <measurement>
10

$$$$
>  <compound>
O=C(O)CCC/C=C\C[C@H]1C(=O)C[C@@H](O)C1/C=C/[C@@H](O)[C@@H]1CCc2ccccc2C1 (some centres undefined)

>  <measuredTarget>
Mus musculus

>  <measurement>
40

$$$$

Attention now shifts to the item below.
Need Relative potency, item O=C(O)CCC/C=C\C[C@@H]1C(/C=C/[C@@H](O)[C@@H]2Cc3ccccc3O2)[C@H](O)C[C@@H]1O (some centres undefined)
190
